system: Hepatotoxicity; experiment: FDA HLAED, gamma-glutamyl transferase (GGT) increase; conditions: human
METRIC: GGT Increase - Index Value
Answers are plain numbers.

Example results:
CC(c1cc2ccccc2s1)N(O)C(N)=O (stereo unspecified) [ZILEUTON] : 5.9
CC(C(=O)O)c1ccc(-c2ccccc2)c(F)c1 (stereo unspecified) [FLURBIPROFEN] : 0.9
C=CC1=C(C(=O)O)N2C(=O)[C@@H](NC(=O)/C(=N\OCC(=O)O)c3csc(N)n3)[C@H]2SC1 [CEFIXIME] : 0
C[C@]12CC[C@@H]3c4ccc(O)cc4CC[C@H]3[C@@H]1CC[C@@H]2OC(=O)CCC1CCCC1 [ESTRADIOL CYPIONATE] : 0.3
CCN[C@@H]1C[C@H](N)[C@@H](O[C@H]2OC(CN)=CC[C@H]2N)[C@H](O)[C@H]1O[C@H]1OC[C@](C)(O)[C@H](NC)[C@H]1O [NETILMICIN] : 0
C[C@]12CC[C@@H]3c4ccc(OC(=O)N(CCCl)CCCl)cc4CC[C@H]3[C@@H]1CC[C@@H]2O [ESTRAMUSTINE] : 0
O=C1CN=C(c2ccccc2)c2cc(Cl)ccc2N1CC(F)(F)F [HALAZEPAM] : 0
O=[N+]([O-])O[C@@H]1CO[C@H]2[C@@H]1OC[C@@H]2O [ISOSORBIDE MONONITRATE] : 0
CC(C)c1ccc2oc3nc(N)c(C(=O)O)cc3c(=O)c2c1 [AMLEXANOX] : 0
CC(O)(CS(=O)(=O)c1ccc(F)cc1)C(=O)Nc1ccc(C#N)c(C(F)(F)F)c1 (stereo unspecified) [BICALUTAMIDE] : 1.7

Hey, quick one: what's GGT Increase - Index Value for each of these?
1. O=S(=O)([O-])CCS.[Na+] [MESNA]
2. N=C(N)c1ccc(OCCCCCOc2ccc(C(=N)N)cc2)cc1 [PENTAMIDINE]
3. Nc1nc2c(ncn2CCC(CO)CO)c(=O)[nH]1 [PENCICLOVIR]

result:
1. 0
2. 0
3. 0

* * *

tested on: Hepatotoxicity; assay: FDA HLAED, serum glutamic oxaloacetic transaminase (SGOT) increase; conditions: human
METRIC: SGOT Increase - Number of Reports

Example results:
Cc1ccnc2c1NC(=O)c1cccnc1N2C1CC1 [NEVIRAPINE] : >= 4
Nc1cc(N2CCCCC2)nc(N)[n+]1[O-] [MINOXIDIL] : >= 4
FCOC(C(F)(F)F)C(F)(F)F [SEVOFLURANE] : < 4
COc1ccc2[nH]c([S+]([O-])Cc3ncc(C)c(OC)c3C)nc2c1 (stereo not given) [OMEPRAZOLE] : >= 4

Next:
query: Quick one: SGOT Increase - Number of Reports of CN(C/C=C/C#CC(C)(C)C)Cc1cccc2ccccc12 [TERBINAFINE] ?
result: >= 4

* * *

test system: Hepatotoxicity; assay: FDA HLAED, serum glutamic pyruvic transaminase (SGPT) increase; settings: human
METRIC: SGPT Increase - Number of Reports

C[C@]12CC[C@H]3[C@@H](CCC4=CC(=O)CC[C@@]43C)[C@@H]1CC[C@@H]2O : < 4
CC1(C)O[C@@H]2C[C@H]3[C@@H]4C[C@H](F)C5=CC(=O)C=C[C@]5(C)[C@H]4[C@@H](O)C[C@]3(C)[C@]2(C(=O)CO)O1 [FLUNISOLIDE] : < 4
NCCCC(O)(P(=O)(O)O)P(=O)(O)O : >= 4
CO/N=C(\C(=O)N[C@@H]1C(=O)N2C(C(=O)O)=C(COC(C)=O)CS[C@H]12)c1csc(N)n1 : < 4
